# System: MALME-3M melanoma
API: response.call in active, inactive

Called result for COc1ccccc1NC(=O)n1nc(N)c2ccccc21
inactive

Called result for COc1cc2c3c(n(CCCNCCN)c(=O)c2cc1OC)-c1cc2c(cc1C3=O)OCO2
inactive

Called result for CC[C@@]1(O)C(=O)NCc2c1cc1n(c2=O)Cc2cc3c(N)cccc3nc2-1
inactive

Called result for O=C(Nc1ccc(F)cc1)c1c(NC(=O)C(F)(F)F)sc2c1CCCCC2
inactive

Called result for Cc1sc(C)c(Cc2c(C)sc(C)c2CCl)c1CCl
inactive

Called result for CO/C1=C\C(C)=C\C(C)C(O)C(C)C/C(C)=C/C=C/C(OC)C(C(C)C(O)C(C)C2(O)CC(O)C(C)C(C(C)C)O2)OC1=O (stereo not drawn)
active

Called result for Cc1cc(C)c(C[N+](C)(C)C)c(C)c1C
inactive

Called result for COc1cc(/C=C\[N+](=O)[O-])ccc1OCc1ccccc1
inactive

Attribution: PubChem BioAssay (NCI)
